- Procedure summary: folding stability dG unfold from chymotrypsin proteolysis; higher = more stable
Parameter: folding stability dG unfold (kcal/mol)
# output: bare number, implied unit kcal/mol

SAGGMLIIRIEIEIEKNGKKEKKEILIVAKTEEEAKKAAEKIAKEKGLKIKKIEILPFKSLEELKKALSAGG [r13_949_TrROS_Hall] ... 3.45

// next item, folding stability dG unfold requested
For the sequence SAGGSAGMVLVRTPDGEVLLLPFTSPEEAEEALERLTGGRLVSVRLEGTPGDRLLLVAEVERPPGGSAGGSA [r15_447_TrMRF] , what folding stability dG unfold is on record?
2.16

###

folding stability dG unfold values, listed per item
- Procedure summary: folding stability dG unfold from trypsin proteolysis; higher = more stable
# output: bare number, implied unit kcal/mol

Some entries whose results are on file:
SMKISSFTLAPGGEAVIELTFESGETRRVRLTGLTSKAEVEAEAKRLQEELEKGNPRPIKTVTVSPAPPASA [r9_1135_JUSTAS] ... 1.14
SAGGSAGGSAGSITFTVPASEFTEEEILERLVEELGIPREKVDLVEIKETPDGKLKVTIKIPSAGGSAGGSA [r18_118_JUSTAS] ... 2.86
SAGKTIVIKAKTAEEAINALLKELKKKGEKVKITVTVYDKNGKEVYRVTIEIDPKEKGKIKIKVEKVPSAGG [r19_85_TrROS_Hall] ... 2.19

For the sequence SAGGSAGGSAGGLPEGWVLKTETKTVKLKVKVKVDGKEYEFEVEVKVTRIELVPKEELESAGGSAGGSAGGS [r10_300_TrROS_Hall] , what folding stability dG unfold is on record?
3.04

For the sequence SAGGSAGGSAGGSWLEFTFIDPGYGWIISTMKIEINPNGNLNMDMEMVPLKPADDPEDASAGGSAGGSAGGS [r4_178_TrROS] , what folding stability dG unfold is on record?
2.38

For the sequence SAGSMRTRKYEVERGEDEIVFPLPDGKVLRLPPDVGATVEVEYDPDGPPVRVTVRFPDGADYVLPYEELSAG [r5_45_JUSTAS] , what folding stability dG unfold is on record?
-0.531

For the sequence SAGGSAGGSAGGLEKLVELLAPGKPLEVLRIDPTPTYVRIVVRHPDYPVDTVILADPDVISAGGSAGGSAGG [r7_303_TrMRF] , what folding stability dG unfold is on record?
0.237

For the sequence SAGGSDEHEYKGTGRDPDNGQTREETYRVEPVVPPIPISISVSLNLDIDPNGNLNWDFNISIGIGISAGGSA [r2_326_TrROS] , what folding stability dG unfold is on record?
2.78

For the sequence SSFMEQARNMAEELLQKKGLPPKPGEKVEIPIPYPNGMQIRITINPEEKKIDVEFYNDNQPVEHTFKIKKSA [r9_426_TrROS] , what folding stability dG unfold is on record?
0.267

For the sequence SAMVLKVEEEPFPPNAKREVKEIRKDPNSDNLFKVKIELEKSPDPSVTSAKVITIPPDGSKKVEEKVLESAG [r14_10_JUSTAS] , what folding stability dG unfold is on record?
0.514
